Biological target: T1, cynomolgus monkey DLL4 extracellular domain (cynomolgus monkey)
T1 construct: extracellular domain; also called cynoDLL4 ECD; Cyno DLL4
Experiment: binding ELISA
Experimental: Plates were then washed 3 times. 100 μl/well of recombinant rat/human chimeric or recombinant human anti-DLL4 antibodies were then added to the plate (0.00164-27 nM, 4-fold serial dilution in ELISA buffer=PBST, 10% Superblock (Pierce #37515)) for 1 hour at 25° C. with shaking and then washed again 3 times. […] The reaction was stopped after 8 minutes at 25° C. with 100 μl/well 1N HCl and the absorbance was read at 450 nm. Data were analyzed using Graphpad Prism software, and EC50 values were reported. […]
Recorded EC50 by entry
// return numeric value only (unit: nM, not printed)

Some solved entries appear below for comparison.
QUERY: Tell me the measured EC50 of h1A11.13 (antibody, V domains shown, humanized IgG; also called VH.2a/VL.1 1A11) VH: EVQLVESGGGLVQPGGSLRLSCAASGFTFSNFPMAWVRQAPGKGLEWVATISSSDGTTYYRDSVKGRFTISRDNSKSTLYLQMNSLRAEDTAVYYCSRGYYNSPFAYWGQGTLVTVSS VL: DIQMTQSPSSLSASVGDRVTITCRASEDIYSNLAWYQQKPGKAPKLLIYDTNNLADGVPSRFSGSGSGTDFTLTISSLQPEDFATYYCQQYNNYPPTFGQGTKLEIKR , please.
RESULT: 0.16

QUERY: Tell me the measured EC50 of h1A11.16 (antibody, V domains shown, humanized IgG; also called VH.2a/VL.2a 1A11) VH: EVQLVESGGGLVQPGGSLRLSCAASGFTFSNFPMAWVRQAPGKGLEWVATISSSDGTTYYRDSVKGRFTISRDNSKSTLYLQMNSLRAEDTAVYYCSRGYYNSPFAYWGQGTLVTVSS VL: EIVMTQSPATLSVSPGERATLSCRASEDIYSNLAWYQQKPGQSPRLLIFDTNNLADGVPARFSGSGSGTESTLTISSLQSEDFAVYFCQQYNNYPPTFGQGTKLEIKR , please.
RESULT: 0.12

QUERY: Tell me the measured EC50 of h1A11.1 (antibody, V domains shown, humanized IgG; also called hu1A11.1; VH.1/VL.1 1A11) VH: EVQLVESGGGLVQPGGSLRLSCAASGFTFSNFPMAWVRQAPGKGLEWVATISSSDGTTYYRDSVKGRFTISRDNAKNSLYLQMNSLRAEDTAVYYCARGYYNSPFAYWGQGTLVTVSS VL: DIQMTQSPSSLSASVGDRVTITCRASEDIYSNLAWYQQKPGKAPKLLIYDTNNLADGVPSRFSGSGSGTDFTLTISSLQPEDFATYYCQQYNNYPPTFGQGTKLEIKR , please.
RESULT: 0.13

QUERY: Tell me the measured EC50 of h1A11.2 (antibody, V domains shown, humanized IgG; also called VH.1/VL.1a 1A11) VH: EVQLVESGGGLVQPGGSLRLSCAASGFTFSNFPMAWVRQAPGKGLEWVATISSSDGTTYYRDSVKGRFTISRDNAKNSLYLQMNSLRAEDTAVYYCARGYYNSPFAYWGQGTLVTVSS VL: DIQMTQSPSSLSASVGDRVTITCRASEDIYSNLAWYQQKPGKSPKLLIFDTNNLADGVPSRFSGSGSGTDSTLTISSLQPEDFATYFCQQYNNYPPTFGQGTKLEIKR , please.
RESULT: 0.13

New cases:
QUERY: Tell me the measured EC50 of h1A11.15 (antibody, V domains shown, humanized IgG; also called VH.2a/VL.1b 1A11) VH: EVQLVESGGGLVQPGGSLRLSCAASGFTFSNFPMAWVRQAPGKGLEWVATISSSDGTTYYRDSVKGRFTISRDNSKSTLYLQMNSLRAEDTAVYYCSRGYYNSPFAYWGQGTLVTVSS VL: DIQMTQSPSSLSASVGDRVTITCRASEDIYSNLAWYQQKPGKAPKLLIFDTNNLADGVPSRFSGSGSGTDFTLTISSLQPEDFATYYCQQYNNYPPTFGQGTKLEIKR , please.
RESULT: 0.13

QUERY: Tell me the measured EC50 of h1A11.9 (antibody, V domains shown, humanized IgG; also called VH.1b/VL.1 1A11) VH: EVQLVESGGGLVQPGGSLRLSCAASGFTFSNFPMAWVRQAPGKGLEWVATISSSDGTTYYRDSVKGRFTISRDNAKNSLYLQMNSLRAEDTAVYYCSRGYYNSPFAYWGQGTLVTVSS VL: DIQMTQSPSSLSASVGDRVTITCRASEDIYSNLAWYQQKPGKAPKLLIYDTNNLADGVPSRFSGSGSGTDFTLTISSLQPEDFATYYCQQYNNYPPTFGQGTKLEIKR , please.
RESULT: 0.15

QUERY: Tell me the measured EC50 of 1A11 chimeric antibody (antibody, human IgG1, V domains shown, also called Chimera of 1A11; 1A11 (chimera)) VH: EVQLVESGGGLVQPGRSMKLSCAASGFTFRNFPMAWVRQAPTRGLEWVATISSSDGTTYYRDSVKGRFTISRDNAKSTLYLQVNSLRSEDTATYYCSRGYYNSPFAYWGQGTLVTVSS VL: DIQMTQSPASLSASLGETVTIECRASEDIYSNLAWYQQKPGNSPQLLIFDTNNLADGVPSRFSGSGSGTQSSLKINSLQSEDVASYFCQQYNNYPPTFGGGTKLELKR , please.
RESULT: 0.33

QUERY: Tell me the measured EC50 of h1A11.6 (antibody, V domains shown, humanized IgG; also called VH.1a/VL.1a 1A11) VH: EVQLVESGGGLVQPGGSLRLSCAASGFTFSNFPMAWVRQAPGKGLEWVATISSSDGTTYYRDSVKGRFTISRDNAKSSLYLQMNSLRAEDTAVYYCSRGYYNSPFAYWGQGTLVTVSS VL: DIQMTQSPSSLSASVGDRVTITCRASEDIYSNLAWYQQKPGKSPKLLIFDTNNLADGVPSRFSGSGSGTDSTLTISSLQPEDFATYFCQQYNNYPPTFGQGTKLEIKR , please.
RESULT: 0.13

QUERY: Tell me the measured EC50 of h1A11.7 (antibody, V domains shown, humanized IgG; also called VH.1a/VL.1b 1A11) VH: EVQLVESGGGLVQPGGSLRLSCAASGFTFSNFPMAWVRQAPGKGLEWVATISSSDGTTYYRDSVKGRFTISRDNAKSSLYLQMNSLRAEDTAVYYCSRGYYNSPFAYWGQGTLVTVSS VL: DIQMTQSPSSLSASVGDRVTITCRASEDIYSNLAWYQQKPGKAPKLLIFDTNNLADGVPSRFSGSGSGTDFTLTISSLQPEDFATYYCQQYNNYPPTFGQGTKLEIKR , please.
RESULT: 0.14

QUERY: Tell me the measured EC50 of h1A11.4 (antibody, V domains shown, humanized IgG; also called VH.1/VL.2a 1A11) VH: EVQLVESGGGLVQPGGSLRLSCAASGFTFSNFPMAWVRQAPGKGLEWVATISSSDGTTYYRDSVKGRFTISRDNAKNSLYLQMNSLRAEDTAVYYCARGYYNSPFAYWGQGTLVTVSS VL: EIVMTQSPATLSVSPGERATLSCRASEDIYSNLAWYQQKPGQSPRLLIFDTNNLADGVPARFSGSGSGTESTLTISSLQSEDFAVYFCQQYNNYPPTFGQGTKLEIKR , please.
RESULT: 0.17

QUERY: Tell me the measured EC50 of h1A11.8 (antibody, V domains shown, humanized IgG; also called VH.1a/VL.2a 1A11) VH: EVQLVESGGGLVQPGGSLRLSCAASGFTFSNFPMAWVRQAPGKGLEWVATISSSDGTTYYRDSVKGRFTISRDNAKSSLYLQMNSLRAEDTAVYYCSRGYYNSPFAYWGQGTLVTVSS VL: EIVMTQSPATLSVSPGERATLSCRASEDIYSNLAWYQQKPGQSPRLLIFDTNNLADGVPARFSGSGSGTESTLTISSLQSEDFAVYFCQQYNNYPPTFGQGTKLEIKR , please.
RESULT: 0.17
